# credit: PubChem BioAssay (NCATS)

experiment: qHTS assay for small molecule agonists of the antioxidant response element (ARE) signaling pathway (AID 651741); conditions: HepG2 ARE-bla reporter, beta-lactamase FRET ratio, 16 h; series mostly up to 96 µM; also: potency is read from the fitted curve at half-maximal effect; as to activation: % of control where 0% means no effect
Inconclusive results are not listed. Activity calls are given as the source filed them. Calls follow the shape of the dose curve; as a rule, active = well fitted activation curve with a large enough effect in the signal ratio; inconclusive = small, poorly fitted or top-dose-only effect, or effect the other way, or a change in a side signal; inactive = flat fitted curve, though single readings scatter; the % refers to the signal ratio.
QUANTITY: Potency

Completed entries (count: 5):
1) CC(C)=C[C@@H]1[C@@H](C(=O)OCN2C(=O)C3=C(CCCC3)C2=O)C1(C)C
54.5 µM (active)
2) NS(=O)(=O)C(F)(F)C(F)(F)C(F)(F)C(F)(F)C(F)(F)C(F)(F)C(F)(F)C(F)(F)F
68.6 µM (active)
3) CCOP(=S)(OCC)SC(CCl)N1C(=O)c2ccccc2C1=O (stereo unspecified)
27.3 µM (active)
4) COC(=O)c1sccc1S(=O)(=O)NC(=O)Nc1nc(C)nc(OC)n1
inactive
5) CCCSC(=O)N(CCC)CCC
inactive

# batch size: 2; output Potency per entry
1. C=CC(=O)OCCCCCC(C)C
2. CCC(CC)Nc1c([N+](=O)[O-])cc(C)c(C)c1[N+](=O)[O-]

["inactive", "27.3 µM (active)"]

# batch size: 4; output Potency per entry
1. Cc1ccccc1CO[C@@H]1C[C@@]2(C(C)C)CC[C@]1(C)O2
2. CNC(=O)O/N=C(\C)SC
3. C/C(=N\NC(=O)Nc1cc(F)cc(F)c1)c1ncccc1C(=O)O
4. COC(=O)/C=C(\C)OP(=O)(OC)OC

inactive
inactive
inactive
inactive

###

assay: qHTS assay for small molecule agonists of the antioxidant response element (ARE) signaling pathway measured by Nrf2-dependant transcriptional activity (AID 720636); conditions: ARE-luc HepG2, Nrf2 luciferase reporter, 16 h; series mostly up to 92.4 µM;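 as to activation: HepG2 cells with an ARE-driven luciferase reporter; % of control where 0% means no effect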
Inconclusive results are not listed. Calls of active or inactive are those of the source. The call rests on the fitted dose curve; in most records, active means well fitted activation curve with a large enough effect in the repeat runs; inconclusive means weak or mixed curves; inactive means flat fitted curve, though single readings scatter.
Respond with a class label; see active, inactive

Here are 4 molecules together with their reported answers.
1) CN/C(=N\[N+](=O)[O-])NCc1cnc(Cl)s1
inactive
2) [Cd+2].[Cl-].[Cl-]
active
3) CC(C)N(C(=O)SCC(Cl)=C(Cl)Cl)C(C)C
inactive
4) COC(=O)c1c(C(F)F)nc(C(F)(F)F)c(C2=NCCS2)c1CC(C)C
inactive

What was the test verdict on Cc1cnc(C2=NC(C)(C(C)C)C(=O)N2)c(C(=O)O)c1 (configuration not stated) ? inactive

Continue with CCOP(=O)(OCC)Oc1ccc([N+](=O)[O-])cc1 inactive

Continue with CC1(C)CN=C(NN=C(/C=C/c2ccc(C(F)(F)F)cc2)/C=C/c2ccc(C(F)(F)F)cc2)NC1 inactive

###

molecular target: Bile acid receptor (Homo sapiens); assay: qHTS assay for small molecule agonists of farnesoid X receptor signaling (AID 588527); conditions: HEK293T FXR-UAS-bla, beta-lactamase ratio, 16 h; active compounds read high;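 also: 0% = vehicle basal and 100% = reference agonist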
Records with an inconclusive call do not appear.
Assignment: determine reported activation for the given compounds.
Give bare numbers, in %.

Completed entries (count: 3):
1. CCCSP(=O)(OCC)Oc1ccc(Br)cc1Cl (centres undefined)
3.54
2. CCCCCCCCCCCO
-0.12
3. CCc1cc(C)cc(CC)c1-c1c(OC(=O)C(C)(C)C)n2n(c1=O)CCOCC2
2.69

# batch size: 4; output activation per entry
1. CSCCC=O
2. CN/C(=N/[N+](=O)[O-])NCC1CCOC1 (centres undefined)
3. CS(=O)(=O)NC(=O)c1cc(Oc2ccc(C(F)(F)F)cc2Cl)ccc1[N+](=O)[O-]
4. COc1ccc(C(=O)Nc2ccccc2)cc1[N+](=O)[O-]

[-2.56, -2.75, -9.24, -2.07]

# batch size: 3; output activation per entry
1. O=C(O)CNC(=O)c1ccc([N+](=O)[O-])cc1
2. COc1cccc(C(=O)NN(C(=O)c2cc(C)cc(C)c2)C(C)(C)C)c1C
3. O=C1CCC(=O)O1

[1.14, 4, -2.49]

# batch size: 8; output activation per entry
1. C#CCC1=C(C)[C@H](OC(=O)[C@H]2[C@H](C=C(C)C)C2(C)C)CC1=O
2. O=C(Nc1ccccc1)c1cc(Cl)ccc1O
3. O=C(O)C1C(C(=O)O)C2(Cl)C(Cl)=C(Cl)C1(Cl)C2(Cl)Cl (centres undefined)
4. Cc1cccc2ccccc12
5. CC(C)(C)c1cccc(C(C)(C)C)c1O
6. COC(=O)CCSCCC(=O)OC
7. C[Si](Cn1cncn1)(c1ccc(F)cc1)c1ccc(F)cc1
8. Cc1ncc[nH]1

1.85
1.59
0.987
-0.539
-3.57
-4.49
2.34
-1.48
